B1: Transcription intermediary factor 1-beta, residues 620 to 671; numbered along this chain, Q13263 (parent)
chain: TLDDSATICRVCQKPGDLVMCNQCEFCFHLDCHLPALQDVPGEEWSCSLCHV

- Variants of: B1
- EXPERIMENT DESCRIPTION: abundance fitness (aPCA) (normalised: wild type 0, dead -1); higher = more abundant; growth selection in yeast, the domain comes from the species named
- MEASUREMENT CONTEXT: Homo sapiens
MEASUREMENT LABEL: abundance fitness

* S5F | -0.227
* T1N | 0.184
* C32Q | -0.904
* L30G | -0.375
* M20I | -0.379
* F28Q | -0.549
* F26D | -0.034
* E25Y | -0.061
* M20F | -0.192
* F28N | -0.724
* T1H | -0.593
* Q38R | 0.023
* H51V | -0.023
* P41I | -0.302
* E25T | -0.024
* W45G | -0.137
* C47K | -0.466
* W45M | -0.296
* R10S | 0.161
* A6H | -0.303
* D4N | 0.074
* V11R | -0.128
